Reported conditions: mouse, in vivo, iv, 37.5 mg/kg
Measured metric: half-life (min)
Report as a plain number; the unit min is understood.

Fill in: half-life of Ac-KPSSPPEE-NH2 [Å6] is ___
12
